# measured on: binding partner of C5A (XPA23)
# assay info: Biacore

binder	fold affinity vs original [fold]
C5A (XPA23) VH K31W (antibody, V domains shown) VH: EVQLLESGGGLVQPGGSLRLSCAASGFTFSWYFMFWVRQAPGKGLEWVSVISPSGGMTRYADSVKGRFTISRDNSKNTLYLQMNSLRAEDTAVYYCARVGYGGNSDYWGQGTLVTVSS VL: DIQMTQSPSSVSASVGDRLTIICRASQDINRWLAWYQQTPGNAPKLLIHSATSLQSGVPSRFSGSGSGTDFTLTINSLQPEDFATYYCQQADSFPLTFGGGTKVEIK	0.84
C5A (XPA23) VH F35K (antibody, V domains shown) VH: EVQLLESGGGLVQPGGSLRLSCAASGFTFSKYFMKWVRQAPGKGLEWVSVISPSGGMTRYADSVKGRFTISRDNSKNTLYLQMNSLRAEDTAVYYCARVGYGGNSDYWGQGTLVTVSS VL: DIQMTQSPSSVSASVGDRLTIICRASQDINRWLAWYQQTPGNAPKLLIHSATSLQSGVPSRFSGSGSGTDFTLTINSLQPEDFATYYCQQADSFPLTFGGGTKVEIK	0.68

These measurements were taken from patent US20110118447A1.
